The reported measurements were obtained from ChEMBL document CHEMBL5260813.

Entries annotated with measured pIC50
tested on: K562; experiment: Antiproliferative activity against human K562 cells assessed as inhibition of cell growth measured after 72 hrs by fluorescence based assay; type: functional; settings: K562, 72 h
pIC50: −log10 of the molar value.

Chemical smiles	pIC50
O=c1nc(NCCCCCN(CCCNc2nc(=O)n(-c3ccccc3)nc2-c2ccccc2O)c2nc(=O)n(-c3ccccc3)nc2-c2ccccc2O)c(-c2ccccc2O)nn1-c1ccccc1	5.46
O=c1nc(NCCCCCCNc2nc(=O)n(-c3ccccc3)nc2-c2c(O)ccc3ccccc23)c(-c2c(O)ccc3ccccc23)nn1-c1ccccc1	5.46
CNc1nc(=O)n(-c2ccccc2)nc1-c1ccccc1O	5.46
